Tested on: Plasmodium berghei
Test: Screen against P. berghei liver stage (PbLuc), transformed with Luciferase, at 2uM
Type: functional, HepG2
Details: tested at 2 uM
About 2,700 (4%) of roughly 68,000 compounds showed an effect of 50% or more. This is one part of a sample in which strong results are shown more often than they occur.
MEASURED_PROPERTY: INHIBITION (%)

{"COMPOUND": "CC(=O)c1c(F)cccc1NCC(O)C(C)(C)C (configuration not stated)", "MEASURE_UNIT": "%", "VAL": 53.44}
{"COMPOUND": "Cn1c2ccccc2c2ncn(CCCN3CCOCC3)c(=O)c21", "MEASURE_UNIT": "%", "VAL": 23.65}
{"COMPOUND": "Cn1nccc1C1CCN(CC(=O)NCC2CC2)CC1", "MEASURE_UNIT": "%", "VAL": 7.71}
{"COMPOUND": "CC(C)NC(=O)[C@@H]1C[C@@H](N)CN1C(=O)c1cc2c([nH]c1=O)CCCC2", "MEASURE_UNIT": "%", "VAL": 31.65}
{"COMPOUND": "COC(C)(C)CNC(=O)N1CCCC1c1c(C)n[nH]c1C (configuration not stated)", "MEASURE_UNIT": "%", "VAL": 22.83}
{"COMPOUND": "Cn1c2ccc(F)cc2c2ncn(CCN3CCOCC3)c(=O)c21", "MEASURE_UNIT": "%", "VAL": -2.5}
{"COMPOUND": "CC(=O)c1c(F)cccc1NCC(O)C1CC1 (configuration not stated)", "MEASURE_UNIT": "%", "VAL": 31.96}
{"COMPOUND": "CN1CCOC(CNCc2cnc(C(C)(C)C)s2)C1 (configuration not stated)", "MEASURE_UNIT": "%", "VAL": 11.01}
{"COMPOUND": "Cc1cn2c(n1)C(CNCc1ccc(C)s1)CCC2 (configuration not stated)", "MEASURE_UNIT": "%", "VAL": -35.26}
{"COMPOUND": "COc1nc2c(cc1C(=O)N1C[C@H](N)C[C@H]1C(=O)NC(C)C)CCC2", "MEASURE_UNIT": "%", "VAL": 43.8}
{"COMPOUND": "CC1CCN(CC(=O)N(C)CCc2noc(C3CC3)n2)C1=O (configuration not stated)", "MEASURE_UNIT": "%", "VAL": 27.73}
{"COMPOUND": "Cc1ccccc1-n1cnc(Cl)c1CO", "MEASURE_UNIT": "%", "VAL": -40.04}

---

Tested on: Plasmodium berghei
Assay: Screen against P. berghei liver stage (PbLuc), transformed with Luciferase, at 2uM
Format: functional, HepG2
Details: tested at 2 uM
About 2,700 (4%) of roughly 68,000 compounds showed an effect of 50% or more. This is one part of a sample in which strong results are shown more often than they occur.
Each entry below carries its recorded INHIBITION.

{"COMPOUND": "CC[C@@]1(O)CCN(C(=O)CN(C)Cc2ccc(F)cc2)C[C@H]1O", "MEASURE_UNIT": "%", "INHIBITION": 25.06}
{"COMPOUND": "CCn1nc(C)c2nc(C(C)C)nc(N3CCC(O)CC3)c21", "MEASURE_UNIT": "%", "INHIBITION": 5.86}
{"COMPOUND": "Nc1nnc(SCc2cc(=O)n3c4c(sc3n2)CCCC4)[nH]1", "MEASURE_UNIT": "%", "INHIBITION": -0.04}
{"COMPOUND": "CC[C@@H]1N(Cc2ccc(C)o2)CCC[C@]12CCC(=O)N2CCOC", "MEASURE_UNIT": "%", "INHIBITION": 33.74}
{"COMPOUND": "O=C1COC2(CCN(S(=O)(=O)C3CC3)CC2)CN1c1cccnc1", "MEASURE_UNIT": "%", "INHIBITION": 10.37}
{"COMPOUND": "COCCNc1nc2c(c(NCC3CCOC3)n1)CCNCC2 (stereo unspecified)", "MEASURE_UNIT": "%", "INHIBITION": 58.53}
{"COMPOUND": "CCNC(=O)O[C@H]1COCCN(c2nc3ccccc3s2)C1", "MEASURE_UNIT": "%", "INHIBITION": 29.85}
{"COMPOUND": "O=C(NCCCn1cccn1)N1CCCC1c1cccs1 (stereo unspecified)", "MEASURE_UNIT": "%", "INHIBITION": -13.45}
{"COMPOUND": "Cc1nc(CN2CCN(C(=O)c3ccc(=O)n(C)c3)CC2)cs1", "MEASURE_UNIT": "%", "INHIBITION": -3.4}
{"COMPOUND": "O=C(NC1CCCC1)O[C@H]1COCCN(c2nc3ccccc3s2)C1", "MEASURE_UNIT": "%", "INHIBITION": 51.26}
{"COMPOUND": "CCS(=O)(=O)N1CC[C@@H]2[C@H](CC1)N(CC(C)C)CCS2(=O)=O", "MEASURE_UNIT": "%", "INHIBITION": 40.5}
{"COMPOUND": "CS(=O)(=O)CCC(=O)NC1(c2cccc(C(F)(F)F)c2)CCC1", "MEASURE_UNIT": "%", "INHIBITION": 61}
{"COMPOUND": "CCNC(=O)CCC(=O)NC1(c2cccc(C(F)(F)F)c2)CCC1", "MEASURE_UNIT": "%", "INHIBITION": 18.85}
{"COMPOUND": "Cc1nn(C)cc1S(=O)(=O)N[C@@H]1CCC[C@@H](n2ccnc2)[C@@H]1O", "MEASURE_UNIT": "%", "INHIBITION": 45.48}
{"COMPOUND": "O=C1[C@H]2CN(Cc3ccccc3)C[C@H]2CN1c1cncnc1", "MEASURE_UNIT": "%", "INHIBITION": 37.15}
{"COMPOUND": "O=C(O)[C@@H]1CN(C(=O)c2ccc3[nH]nnc3c2)C[C@H]1c1ccccc1", "MEASURE_UNIT": "%", "INHIBITION": 39.57}
{"COMPOUND": "O=C(N[C@@H]1CCN(c2nc3ccccc3o2)C[C@H]1O)c1cnccn1", "MEASURE_UNIT": "%", "INHIBITION": 26.3}
{"COMPOUND": "CCN1CC2(CC1=O)CN(C(=O)c1cccs1)CCN(C(=O)N(C)C)C2 (stereo unspecified)", "MEASURE_UNIT": "%", "INHIBITION": -48.39}
{"COMPOUND": "CNc1cccc(C2CCCN(C(=O)c3ccncc3)C2)n1 (stereo unspecified)", "MEASURE_UNIT": "%", "INHIBITION": 52.89}
{"COMPOUND": "CN(C)Cc1nn(C)c2c1CN(S(=O)(=O)c1ccccc1F)C2", "MEASURE_UNIT": "%", "INHIBITION": 32.05}
{"COMPOUND": "Cc1ccc(Oc2c(F)cccc2OC[C@@H](N)CC(C)C)cc1", "MEASURE_UNIT": "%", "INHIBITION": 16.01}
{"COMPOUND": "CNc1cccc(C2CCCN(C(=O)c3cccnc3)C2)n1 (stereo unspecified)", "MEASURE_UNIT": "%", "INHIBITION": -23.48}
{"COMPOUND": "O=C(NCc1cnc2n1CCN(Cc1ccoc1)C2)c1ccno1", "MEASURE_UNIT": "%", "INHIBITION": 42.64}
{"COMPOUND": "CCS(=O)(=O)N1CCN(C)c2ncccc2C1", "MEASURE_UNIT": "%", "INHIBITION": 4.07}
{"COMPOUND": "CCn1cnnc1Cn1cccc(C(F)(F)F)c1=O", "MEASURE_UNIT": "%", "INHIBITION": 62.01}
{"COMPOUND": "Cc1nn(C)c(C)c1Cc1nc(N(C)C)no1", "MEASURE_UNIT": "%", "INHIBITION": 20.71}
{"COMPOUND": "COCCN1CCCC(O)(CN2CCN(c3cc(C)ccn3)CC2)C1=O (stereo unspecified)", "MEASURE_UNIT": "%", "INHIBITION": 17.6}
{"COMPOUND": "CC1(C)CC(C(=O)N2CCC3(CCC(=O)N(C4CC4)C3)CC2)CCO1 (stereo unspecified)", "MEASURE_UNIT": "%", "INHIBITION": -29.52}
{"COMPOUND": "CCCC(=O)N1CCC(c2cc3cccnc3c(O)n2)CC1", "MEASURE_UNIT": "%", "INHIBITION": 4.48}
{"COMPOUND": "O=C1[C@@H]2CC[C@@H](CN(c3ncnc4ccsc34)C2)N1CC1CC1", "MEASURE_UNIT": "%", "INHIBITION": 62.51}
{"COMPOUND": "Cc1nc(C)n(CC(C)C(=O)N2CCC(NS(C)(=O)=O)CC2)n1 (stereo unspecified)", "MEASURE_UNIT": "%", "INHIBITION": 5.85}
{"COMPOUND": "CN1C(=O)[C@@H]2CC[C@H]1CN(c1ncnc3ccsc13)C2", "MEASURE_UNIT": "%", "INHIBITION": 14.82}
{"COMPOUND": "CC(C)c1nnc2n1CCN(Cc1nc3c(F)cccc3[nH]1)C2", "MEASURE_UNIT": "%", "INHIBITION": 45.4}
{"COMPOUND": "COCCNc1nc2c(c(NCCc3cccs3)n1)CCNCC2", "MEASURE_UNIT": "%", "INHIBITION": -15.37}
{"COMPOUND": "COc1ccc2c(c1)c(C(=O)Nc1nnn[nH]1)cn2C(C)C", "MEASURE_UNIT": "%", "INHIBITION": -2.44}
{"COMPOUND": "O=C1[C@H]2CN(Cc3ccc(F)cc3)C[C@H]2CN1c1cncnc1", "MEASURE_UNIT": "%", "INHIBITION": -20.89}
{"COMPOUND": "COc1cc(N2C[C@H]3CC[C@@H](C2)N(CC2CCC2)C3=O)ncn1", "MEASURE_UNIT": "%", "INHIBITION": 8.26}
{"COMPOUND": "c1nc(N2CCCC(Cn3cncn3)C2)c2ccsc2n1 (stereo unspecified)", "MEASURE_UNIT": "%", "INHIBITION": -1.74}
{"COMPOUND": "c1ccc2oc(N3CCCC4(CCOC4)C3)nc2c1 (stereo unspecified)", "MEASURE_UNIT": "%", "INHIBITION": -14.46}
{"COMPOUND": "CN1CCN(S(=O)(=O)C2CC2)Cc2cccnc21", "MEASURE_UNIT": "%", "INHIBITION": -5.9}
{"COMPOUND": "c1nc(N2CCCC2Cn2cncn2)c2sccc2n1 (stereo unspecified)", "MEASURE_UNIT": "%", "INHIBITION": -48.41}
{"COMPOUND": "CN1CCN(S(C)(=O)=O)Cc2cccnc21", "MEASURE_UNIT": "%", "INHIBITION": 58.97}
{"COMPOUND": "CN1CCCN(C[C@@H]2CN(c3nc(C(N)=O)cs3)C[C@@H]2CO)CC1", "MEASURE_UNIT": "%", "INHIBITION": 19.56}
{"COMPOUND": "CN(Cc1cc2n(n1)CCCN(C(=O)N1CCCC1)C2)Cc1nccs1", "MEASURE_UNIT": "%", "INHIBITION": -10.4}
{"COMPOUND": "Cc1nn(C)c(C)c1C(C(=O)O)N1CCc2ccccc2C1 (stereo unspecified)", "MEASURE_UNIT": "%", "INHIBITION": 11.33}
{"COMPOUND": "Cc1ncoc1C(=O)N1CCc2[nH]nc(-c3ccc4c(c3)OCO4)c2C1", "MEASURE_UNIT": "%", "INHIBITION": -4.53}
